Recorded IC50 by entry
- Test system: serotonin 1A (5-HT1A) receptor (Rattus norvegicus, UniProt P19327)
- Construct: Freezed hippocampus dissected out from rats were homogenized; from tissue; host or cells: rat hippocampus, crude synaptosome membranes
- Sequence (P19327 whole entry): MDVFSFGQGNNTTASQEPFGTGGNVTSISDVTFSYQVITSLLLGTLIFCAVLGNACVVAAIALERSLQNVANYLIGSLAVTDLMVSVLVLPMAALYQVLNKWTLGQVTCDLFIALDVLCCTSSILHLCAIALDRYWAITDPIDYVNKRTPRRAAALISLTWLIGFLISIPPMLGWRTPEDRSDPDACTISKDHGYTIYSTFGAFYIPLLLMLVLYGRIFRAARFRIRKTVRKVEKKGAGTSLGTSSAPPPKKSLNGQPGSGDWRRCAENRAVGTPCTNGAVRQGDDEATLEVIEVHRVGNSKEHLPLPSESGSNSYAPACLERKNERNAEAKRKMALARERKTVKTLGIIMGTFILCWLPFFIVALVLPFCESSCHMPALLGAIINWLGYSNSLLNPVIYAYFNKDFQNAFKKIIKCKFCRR
- Assay text: 5-HT1A receptor affinity, 3H-8-OH-DPAT binding test (Experiment 1)
- Procedure: Experiment 1: affinity for serotonin 1A (5-HT1A) receptor [^3 H-8-Hydroxy-2-dipropylaminotetralin (^3 H-8-OH-DPAT)binding test] After completion of reaction, the suspension was centrifuged at 40,000×g for 20 minutes at 0° C. Then to the mixture was added 5 ml of ice-cold 50 mM Tris-CHI buffer (pH 7.4) rapidly vacuum-filtered through Whatman® GF/B filters and was washed twice with 5 ml of the same buffer. […] Nonspecific binding was determined under the presence of 10^-5 M serotonin (5-HT).
Express your answer as a number followed by its unit.

Sample records with IC50:
CN1C[C@H](CNC(=O)C2CCCCC2)C[C@@H]2c3cc(C(C)(C)C)cc4[nH]cc(c34)C[C@H]21: 5 nM
CN1C[C@H](CNC(=O)c2cncc(Br)c2)C[C@@H]2c3cc(C(C)(C)C)cc4[nH]cc(c34)C[C@H]21: 10 nM

IC50 reading for `CN1C[C@H](CNC(=O)Nc2ccccc2)C[C@@H]2c3cc(C(C)(C)C)cc4[nH]cc(c34)C[C@H]21` : 10 nM

IC50 reading for `CN1C[C@H](CO)C[C@@H]2c3cc(C(C)(C)C)cc4[nH]cc(c34)C[C@H]21` : 10 nM

IC50 reading for `CN1C[C@H](CNC(=O)c2ccncc2)C[C@@H]2c3cc(C(C)(C)C)cc4[nH]cc(c34)C[C@H]21` : 80 nM

IC50 reading for `CCOC(=O)NC[C@@H]1C[C@@H]2c3cc(C(C)(C)C)cc4[nH]cc(c34)C[C@H]2N(C)C1` : 50 nM

IC50 reading for CN1CC(CNC(=O)Cc2ccccc2)CC2c3cc(C(C)(C)C)cc4[nH]cc(c34)CC21 (stereo not shown) : 8 nM
